# experimentalProtocol: Metabolic stability in rat liver S9 fraction measured upto 60 mins by LC-MS/MS method
# Assay type: ADME, subcellular
# measurementSetup: read-out: Stability
propertyLabel: remaining at 1 h

### Prompt # get_value(readout='remaining at 1 h', item= Cc1ccc([C@@H]2C[C@H](CN[C@H](C)c3cccc4ccccc34)Oc3ccccc32)cc1C(=O)O.Cl )
### Response > 80%

###

# experimentalProtocol: Cmax in Sprague-Dawley rat at 1 mg/kg, iv measured upto 24 hrs by LC-MS/MS analysis
# Assay type: ADME, organism-based
# Design: dose 1 mg/kg, time < 24 hrs, route iv
# measurementSetup: in vivo
propertyLabel: Cmax (nM)
Express the result in nM but write the number alone.

### Prompt What value of Cmax has been recorded for this entry: Cc1ccc(N2CC(CN[C@H](C)c3cccc4ccccc34)Oc3ccccc32)cc1C(=O)O.Cl (stereo partly drawn)
### Response 5000

### Prompt Can you share its Cmax? I mean this molecule: C[C@@H](NCCCc1cccc(C(F)(F)F)c1)c1cccc2ccccc12
### Response 500

### Prompt Dear colleague, I am looking for the recorded Cmax of the following molecule: Cc1ccc([C@@H]2C[C@H](CN[C@H](C)c3cccc4ccccc34)Oc3ccccc32)cc1C(=O)O.Cl
### Response 2000
